Entry source: patent US20240166639A1

Listing of recorded EC50 at 48 h by entry.
method.summary: Healthy blood cells viability assay
Type: cell-based
condition.context: 48 h treatment, healthy peripheral blood mononuclear cells; read-out: EC50 (uM), cytotoxic capacity on healthy cells
Hi! Could you send only the number? It should be in µM, unit omitted.

Worked cases, answers included:
Cc1nc(-c2ccc(-c3ccc(C(=O)Nc4ncc(C#N)c(OCCN(C)C)n4)cc3)c(Cl)c2)no1: 50
Cc1nc(-c2ccc(-c3ccc(C(=O)Nc4cc(OCCN(C)C)c(C#N)cn4)cn3)c(Cl)c2)no1: 25
Cc1nc(-c2ccc(-c3ccc(C(=O)Nc4ncc(C#N)c(OCCN(C)C)n4)cc3)c(C3CC3)c2)no1: 25
Cc1nc(-c2ccc(-c3ccc(C(=O)Nc4cc(OCCN(C)C)c(Br)cn4)cn3)c(C3CC3)c2)no1: 50

Then this compound:
Prompt line: Given the entry `Cc1nc(-c2ccc(-c3ccc(C(=O)Nc4ccc(C#N)c(OCCN(C)C)c4)cn3)c(C3CC3)c2)no1` , report its measured EC50 at 48 h.
Response line: 50
